Cited source: PubChem BioAssay

experiment: JC-1 mitochondrial signal, unstimulated MM1S myeloma – cell-based, JC-1 fluorescence, 24 h, 100 nL compound, profiling panel (AID 1170); settings: MM1S mitochondrial potential, higher = more signal; also: test concentration not given here
Decision: z-score compared against -0.6; not below it gives Condition met, below it gives Condition not met.

Example results:
Say whether CC=CC(O)C1C=CC2C(=O)N(C)C(=O)C2N1N(c1ccccc1)c1ccccc1 (stereo not given) shows z-score of -0.6 or more.
Condition met

Now try COc1ccc(-c2cc3c(c(Cc4ccccc4)n2)[Si](C(C)C)(C(C)C)OC3)cn1 .
Condition met

Now try C=C(CCCC)/C(=C/C[C@H](OC(=O)c1ccncc1)c1ccc(OCCO)cc1)c1cc(C(=O)OC)ccc1OC .
Condition not met

Now try O=C1C2C=CC(C(O)c3ccc(-c4ccccc4)s3)N(Nc3ccccc3)C2C(=O)N1c1ccccc1 (stereo not given) .
Condition met

---
Say whether COc1ccc(C(=O)Nc2ccc(CN3C(=O)[C@]4(O[C@H](CC(=O)N5CCC[C@H]5CO)[C@@H]([Si](C)(C)c5ccc(OC)cc5)[C@@H]4C)c4ccccc43)cc2)cc1 shows z-score of -0.6 or more.
Condition not met

Now try C=CCOC(=O)[C@H]1[C@@H]2C(=O)O[C@@H](c3ccccc3)[C@@H](c3ccccc3)N2[C@@H](c2ccc(OCCOC(=O)[C@@H]3C[C@@H]4C(=O)N5CCC[C@H]5C(=O)N4[C@@H]3c3cccc(OCCO)c3)cc2)[C@]12C(=O)Nc1ccc(I)cc12 .
Condition not met

Now try C=CCC(OC(C)=O)[C@@H]1[C@@H](N(Cc2ccc(-c3ccccc3)cc2)C(=O)Cc2ccc(F)cc2)c2cc(OCCCO)ccc2N1C(=O)c1ccc2ccccc2c1 (stereo not given in full) .
Condition met

Now try CCCCCCc1nc(-c2ccc(-c3ccc(Cl)c(Cl)c3)o2)c(C)c2c1[Si](C(C)C)(C(C)C)OC2 .
Condition not met

Now try O=C(NCCN1CCOCC1)[C@@H]1c2ccccc2C(=O)N(Cc2cc(C(F)(F)F)cc(C(F)(F)F)c2)[C@H]1c1ccc(CO)cc1 .
Condition met

Now try COc1ccc(NN2C(C(O)c3ccc(N(C)C)cc3)C=CC3C(=O)N(C4CCCCC4)C(=O)C32)cc1 (stereo not given) .
Condition not met

Now try CCOc1ccc(N2C(=O)CSC2c2cccc([N+](=O)[O-])c2)cc1 (stereo not given) .
Condition met

Now try CO[C@H]1O[C@H](CO)[C@@H](OC(=O)Nc2ccc(Br)cc2)[C@@H]2OC(=O)[C@H](Cc3cccc(Br)c3)C/C=C/C[C@@H](Cc3cccc(Br)c3)C(=O)O[C@@H]12 .
Condition met

Now try COC(=O)c1c(CC[C@@H](CO)NC(=O)NCCc2c[nH]c3ccccc23)oc(C(=O)Cc2ccccc2)c1C(=O)OC .
Condition met

Now try C=CC1c2cc(O)c(OC)cc2CCN1Cc1cccc(OC(F)(F)F)c1 (stereo not given) .
Condition not met
